Test system: Pseudomonas aeruginosa
Test: Induction of pre-existing Pseudomonas aeruginosa ATCC 27853 biofilm detachment after 24 hrs by crystal violet staining-based assay relative to control
Assay type: functional
Set-up: concentration or dose not given beside the values
measured_quantity: Activity (%)
Give the value, in units of %, as a plain number.

The value of Activity measured for the molecule O=C(O)c1cn(C2CC2)c2cc(N3CCNCC3)c(F)cc2c1=O [CIPROFLOXACIN] turned out to be 50

----------
Test system: Pseudomonas aeruginosa
Test: Induction of pre-existing Pseudomonas aeruginosa ATCC 27853 biofilm detachment after 24 hrs by crystal violet staining-based assay relative to control
Type: functional
Parameters: concentration or dose not given beside the values
Please go through the items and note down their Activity.
Give the value, in units of %, as a plain number.

The value of Activity measured for the molecule "CCCCCCCCCCCCCCCC(=O)N(CC(N)=O)C[C@H](CCCCN)NC(=O)CN1C[C@H](Cc2ccccc2)NC(=O)CN(C(=O)CCCN)C[C@H](Cc2ccccc2)NC(=O)CN(C(=O)CCCN)C[C@H](Cc2ccccc2)NC(=O)CN(C(=O)CCCN)C[C@H](Cc2ccccc2)NC(=O)CCC1=O" turned out to be 50

The value of Activity measured for the molecule "CCCCCCCCCCCCCCCC(=O)N(CC(N)=O)C[C@H](CCCCN)NC(=O)CN1C[C@H](Cc2ccccc2)NC(=O)CN(C(=O)CCc2ccccc2)C[C@H](CCCCN)NC(=O)CN(C(=O)CCCN)C[C@H](Cc2ccccc2)NC(=O)CN(C(=O)CCc2ccccc2)C[C@H](CCCCN)NC(=O)CCC1=O" turned out to be 50

The value of Activity measured for the molecule "CCCCCCCCCCCCCCCC(=O)N(CC(N)=O)C[C@H](CCCCN)NC(=O)CN1C[C@H](Cc2ccccc2)NC(=O)CN(C(=O)CCc2ccccc2)C[C@H](CCCCN)NC(=O)CN(C(=O)CCc2ccccc2)C[C@H](CCCCN)NC(=O)CN(C(=O)CCc2ccccc2)C[C@H](CCCCN)NC(=O)CN(C(=O)CCc2ccccc2)C[C@H](CCCCN)NC(=O)CCC1=O" turned out to be 50

The value of Activity measured for the molecule "CCCCCCCCCCCCCCCC(=O)N(CC(N)=O)C[C@H](CCCCN)NC(=O)CN1C[C@H](Cc2ccccc2)NC(=O)CN(C(=O)CCc2ccccc2)C[C@H](CCCCN)NC(=O)CN(C(=O)CCc2ccccc2)C[C@H](CCCCN)NC(=O)CN(C(=O)CCc2ccccc2)C[C@H](CCCCN)NC(=O)CCC1=O" turned out to be 60

The value of Activity measured for the molecule "CCCCCCCCCCCCCCCC(=O)N(CC(N)=O)C[C@H](CCCCN)NC(=O)CN1C[C@H](Cc2ccccc2)NC(=O)CN(C(=O)CCc2ccccc2)C[C@H](CCCCN)NC(=O)CN(C(=O)CCCN)C[C@H](Cc2ccccc2)NC(=O)CN(C(=O)CCCN)C[C@H](Cc2ccccc2)NC(=O)CN(C(=O)CCc2ccccc2)C[C@H](CCCCN)NC(=O)CCC1=O" turned out to be 50
